The reported measurements were obtained from paper PMC7083565.

assay: Plasma protein binding (ultrafiltration), rat; type: in vitro ADME; conditions: male, Sprague Dawley, 50 to 50 000 ng/mL, mean ± SD, n = 3, read-out: percentage protein binding (converted)
ENDPOINT_LABEL: fraction unbound at 15 min
Give your answer as a number; write no unit.

### Prompt // query fraction unbound at 15 min value for entry O=C(O)c1cccc(-c2noc(-c3ccccc3F)n2)c1
### Response 0.013

====

experiment: Ataluren glucuronidation kinetics, human liver microsomes; assay type: in vitro ADME; conditions: human, pooled human liver microsomes incubation mixture, pH 7.5, HLM, 2% BSA, mean ± SD, n = 3; read-out: fu,inc
ENDPOINT_LABEL: fraction unbound at 15 min

### Prompt // query fraction unbound at 15 min value for entry O=C(O)c1cccc(-c2noc(-c3ccccc3F)n2)c1
### Response 0.03
